// data source = patent US20200270325A1

target: human GLP-1 receptor (GLP1R) (human, UniProt P43220 24-463); assay: cell-based or functional assay
Numbered stars: 1 amine (or outer) side, 2 acyl side, 3 side chain; on linkers, the order of the positions; unused ones are H or OH. Square brackets hold non-standard residues; d marks the D form. Side chains are listed from the residue outwards. Ends that are not written are not given here. * marks the point of attachment. Phe(4-CH2NH2) = NCc1ccc(C[C@H](N)C(=O)O)cc1; C16 diacid = O=C(O)CCCCCCCCCCCCCCC(=O)*; γGlu = O=C(O)[C@H](CCC(=O)[*:2])N[*:1]; αMeD = C[C@](N)(CC(=O)O)C(=O)O; AEEA = NCCOCCOCC(=O)O; Aib = CC(C)(N)C(=O)O
Listed binders paired with reported GLP1R EC50 human
A number alone suffices; assume nM.

binder	assayEndpoint	endpointValue
HXQGTFTSDYSKYLDARAAQXFVQWLXXT (Aib (U) at 2; K(PEG5-γEC18-OH) at 21; L-methionine sulphone (2) at 27; αMD (printed aMD) at 28; C-terminal amide) [TP608]	GLP1R EC50 human	0.23
H[Aib]QGTFTSD[Phe(4-CH2NH2)]([AEEA-AEEA-γGlu-C16 diacid])SKYLD[Aib]RAAQDFVQWLL[αMeD]TK-{γGlu-NH2} [TP657]	GLP1R EC50 human	2.18

Return reported GLP1R EC50 human; argument: H[Aib]QGTFTSDYSKYLD[Aib]RAA[Phe(4-CH2NH2)]([AEEA-AEEA-γGlu-C16 diacid])DFVQWLLATK-{γGlu-NH2} [TP663]
0.38

Record request: GLP1R EC50 human value, item HXQGTFTSDXSKYLDARAAQDFVQWLLDT (D-Ser (s) at 2; Nle(1,2,3-triazole-4-C15) at 10; C-terminal amide) [TP829]
0.68
